Measured values drawn from PubChem BioAssay for this set.

- ASSAY: JC-1 mitochondrial signal, unstimulated MM1S myeloma – cell-based, JC-1 fluorescence, 24 h, 100 nL compound, profiling panel (AID 1170); also: test concentration not given here
- SETTINGS: MM1S mitochondrial potential, higher = more signal
Assign class by z-score: not lower than -0.7 means condition met; lower than -0.7 means condition not met.

Here's what some known entries look like.
Does the reported z-score for CC(c1ccccc1)C(O)C1C=CC2C(=O)N(Cc3ccccc3)C(=O)C2N1n1cnnc1 (configuration not stated) fall at or above the -0.7 mark? condition met

Also, CCOC(=O)C1=CC[C@@H](c2ccccc2)N(S(=O)(=O)c2ccc(C)cc2)[C@H]1c1ccc(C#N)cc1 please. condition not met

Also, CN1C(=O)C2C(C1=O)C1C=C(c3ccc(CO)cc3)C2C(C2CC2)N1Cc1sc2ccccc2c1Cl (configuration not stated) please. condition not met

Also, C=CCOC(=O)[C@H]1[C@@H]2C(=O)O[C@@H](c3ccccc3)[C@@H](c3ccccc3)N2[C@@H](c2ccc(OCCOC(=O)[C@@H]3C[C@@H]4C(=O)NCC(=O)N4[C@@H]3c3ccc(O)cc3)cc2)[C@]12C(=O)Nc1ccc(I)cc12 please. condition not met

Also, CCOC(=O)C=Cc1cccc(OC)c1O please. condition not met

Also, C=CCNC(=O)[C@H]1[C@@H]2C(=O)O[C@@H](c3ccccc3)[C@@H](c3ccccc3)N2[C@@H](c2ccc(OCCO)cc2)[C@]12C(=O)N(C(=O)OCCOC)c1ccc(C#CC3(O)CCCCCC3)cc12 please. condition not met

Read the next record carefully.
Does the reported z-score for O=C1OCCC/C=C\[C@H]2OC34C=CCN(CCN5CCOCC5)C(=O)[C@H]3N(CCO)C(=O)[C@@H]4C12 (some centres not stated) fall at or above the -0.7 mark? condition met

----------
- ASSAY: small molecules captured by biotinylated probe aFGF10 – biochemical, small-molecule microarray, fluorescence 635/667, stem cell growth factor project, primary screen (AID 1071);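 also: score merges 667 nm spot intensity and signal to noise from triplicate slides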
- SETTINGS: higher = more signal
Assign class by composite z-score: not lower than 0.2 means Condition met; lower than 0.2 means Condition not met.

Here's what some known entries look like.
Does the reported composite z-score for O=C1OCC=C[C@H]2OC34C=CCN(c5ccc(Cl)cc5)C(=O)[C@H]3N(CCCO)C(=O)[C@@H]4[C@@H]12 (stereo not given in full) fall at or above the 0.2 mark? Condition not met

Also, Cc1ccc(S(=O)(=O)N2CC(C(=O)O)=CCC2c2ccccc2)cc1 (stereo not given) please. Condition not met

Also, C=C(/C(=C/C[C@@H](OC(C)=O)c1ccc(CO)o1)c1cnc2ccccc2c1)C(C)C please. Condition met

Also, C=CCCN(CC#C[C@H]1Oc2ccccc2S(=O)(=O)N2CCC[C@@H]12)S(=O)(=O)c1ccc(C)cc1 please. Condition met

Also, CN(C)CCCC[C@@H]1NC(=O)[C@@H]2C[C@H](C(=O)NCc3ccc(F)cc3)[C@H](c3cccc(OCCO)c3)N2C1=O please. Condition met

***
Does the reported composite z-score for O=C(NCc1ccccc1)[C@@H]1c2ccccc2C(=O)N(C2CCCCC2)[C@H]1c1ccc(CO)cc1 fall at or above the 0.2 mark? Condition met

Also, CCCCN1CC=CC23O[C@@H]4/C=C\CCCOC(=O)C4[C@H]2C(=O)N(C(C)CO)[C@@H]3C1=O (stereo not given in full) please. Condition not met

Also, [N-]=[N+]=NCc1ccccc1C[C@]1(C(=O)NCc2ccccc2)COC(c2ccc(OCCCO)cc2)=N1 please. Condition not met

Also, O=C1O[C@@H](c2ccccc2)[C@@H](c2ccccc2)N2[C@@H](c3ccc(O)cc3)[C@]3(C(=O)Nc4ccccc43)[C@@H](C(=O)NC[C@H](O)c3ccccc3)[C@H]12 please. Condition not met

Also, CN1C(=O)C2C(C1=O)C1C=C(c3ccc(CO)cc3)C2C(C2CC2)N1Cc1cc2c(cc1Br)OCO2 (stereo not given) please. Condition met

Also, COC(=O)[C@@]1(Cc2ccccc2)[C@H]2c3cc(C(=O)N(C)C)n(Cc4ccccc4)c3C[C@H]2CN1C(=O)c1ccccc1 please. Condition met
